Each entry below carries its reported pIC50.
- TESTED_TARGET: Recombinant human LOXL3 (lysyl oxidase like 3) (Homo sapiens)
- Sequence (P58215 26-753): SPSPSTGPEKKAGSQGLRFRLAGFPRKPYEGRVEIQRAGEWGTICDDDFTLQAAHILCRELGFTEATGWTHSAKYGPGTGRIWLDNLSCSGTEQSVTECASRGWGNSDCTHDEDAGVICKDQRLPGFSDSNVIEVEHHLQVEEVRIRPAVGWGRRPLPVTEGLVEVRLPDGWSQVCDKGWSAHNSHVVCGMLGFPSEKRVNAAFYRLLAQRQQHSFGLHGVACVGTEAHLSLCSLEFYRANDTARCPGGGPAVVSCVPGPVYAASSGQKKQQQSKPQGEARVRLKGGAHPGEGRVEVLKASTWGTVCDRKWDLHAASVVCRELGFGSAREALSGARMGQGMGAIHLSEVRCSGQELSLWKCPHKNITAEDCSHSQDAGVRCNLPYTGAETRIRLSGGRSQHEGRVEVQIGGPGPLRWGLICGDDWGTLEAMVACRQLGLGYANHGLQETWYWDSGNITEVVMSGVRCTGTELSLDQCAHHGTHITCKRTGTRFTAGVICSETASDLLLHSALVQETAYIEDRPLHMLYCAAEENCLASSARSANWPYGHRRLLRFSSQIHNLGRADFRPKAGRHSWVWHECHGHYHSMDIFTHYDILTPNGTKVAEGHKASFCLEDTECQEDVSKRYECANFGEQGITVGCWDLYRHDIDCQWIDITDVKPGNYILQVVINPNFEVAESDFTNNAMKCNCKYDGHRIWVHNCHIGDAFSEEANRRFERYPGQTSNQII
- PROCEDURE_TEXT: LOXL3 inhibition assay (fluorometric, cadaverine/Amplex Red/HRP)
- RUN_CONDITIONS: IC50 class; recombinant human LOXL3, cadaverine substrate; read-out: Activity Range LOXL3
pIC50: −log10 of the molar value.

MOLECULE | VALUE_KIND | MEAS_VALUE
CS(=O)(=O)[C@H]1C[C@@H](S(=O)(=O)c2cccc(CN)c2)CN(c2ccccc2F)C1 (racemic) [Example 92, 2,2,2-trifluoroacetate] | pIC50 | 4.52 to 6.00

Now look at this one.
Entry under test: NCc1cccc(S(=O)(=O)N2C[C@@H](C(=O)N3CCOCC3)C[C@@H](C3CCCCC3)C2)c1 (racemic) [Example 139] . Its pIC50 was 4.52 to 6.00

###

Each entry below carries its reported Predicted hepatic CL.
- PROCEDURE_TEXT: Microsome stability study
- Assay type: in vitro ADME, mouse
- RUN_CONDITIONS: mouse liver microsomes
Report as a plain number; the unit mL/min/kg is understood.

COMPOUND | Predicted hepatic CL [mL/min/kg]
NCc1ccnc(S(=O)(=O)N2C[C@@H](C(=O)N3CCS(=O)(=O)CC3)C[C@@H](C3CCCCC3)C2)c1.O=C(O)C(F)(F)F (racemic) | 61.03
NCc1ccc(S(=O)(=O)N2C[C@@H](C(=O)N3CCOCC3)C[C@@H](C3CCCCC3)C2)s1.O=C(O)C(F)(F)F (racemic) | 58.07

Entry under test: CN(C)C(=O)N1C[C@@H](c2ccccc2)C[C@@H](S(=O)(=O)c2cccc(CN)c2)C1.O=C(O)C(F)(F)F (racemic) . Its Predicted hepatic CL was 33.58

Entry under test: CS(=O)(=O)[C@H]1C[C@@H](S(=O)(=O)c2cccc(CN)c2)CN(c2ccccc2)C1 (racemic) . Its Predicted hepatic CL was 18.00

###

- PROCEDURE_TEXT: Microsome stability study
- Type: in vitro ADME, mouse
- RUN_CONDITIONS: CD-1, pH 7.4; male mouse liver microsomes 0.5 mg/mL, 2 μM, NADPH
Decision: half-life at 2 μM beneath 80 min gives TRUE; half-life at 2 μM meeting or exceeding 80 min gives FALSE.

Illustrative cases are given below, each with its answer.
MOLECULE | CLASS_ASSIGNMENT
NCc1ccc(S(=O)(=O)N2C[C@H](C(=O)N3CCS(=O)(=O)CC3)C[C@@H](c3ccccc3)C2)s1.O=C(O)C(F)(F)F (racemic) [Example 75B] | TRUE
CS(=O)(=O)[C@H]1C[C@@H](S(=O)(=O)c2cccc(CN)c2)CN(c2ccccc2)C1 (racemic) | FALSE
CS(=O)(=O)N1CCN(C(=O)[C@H]2C[C@@H](c3ccccc3F)CN(S(=O)(=O)c3ccc(CN)s3)C2)CC1.O=C(O)C(F)(F)F (racemic) | TRUE
CN(C)C(=O)N1C[C@@H](c2ccccc2)C[C@@H](S(=O)(=O)c2cccc(CN)c2)C1.O=C(O)C(F)(F)F (racemic) | FALSE
NCc1ccc(S(=O)(=O)N2C[C@@H](C(=O)N3CCOCC3)C[C@@H](C3CCCCC3)C2)s1.O=C(O)C(F)(F)F (racemic) | TRUE

# strict comparison: is reported half-life at 2 μM < 80 min? input = NCc1ccnc(S(=O)(=O)N2C[C@@H](C(=O)N3CCS(=O)(=O)CC3)C[C@@H](C3CCCCC3)C2)c1.O=C(O)C(F)(F)F (racemic)
TRUE

###

- PROCEDURE_TEXT: PK study following IV and PO administration in male CD1 mice
- Assay type: in vivo, mouse
- RUN_CONDITIONS: mouse, IV, 10 mg/kg, plasma, mean of three mice
- Experimental: The objective of this study was to determine the pharmacokinetic (PK) profile of LOX enzyme inhibiting compounds following IV and PO administrations in male CD1 mice. Male CDT mice from a qualified provider were used for all studies. […] Concentrations of LOX enzyme inhibiting compounds in the plasma were analyzed using a LC-MS/MS method. […] The following pharmacokinetic parameters were calculated, whenever possible from the plasma concentration versus time data: […]
Each entry below carries its reported AUC(0-t).
Report as a plain number; the unit ng·h/mL is understood.

COMPOUND | UNITS | MEAS_VALUE
NCc1ccnc(S(=O)(=O)N2C[C@@H](C(=O)N3CCS(=O)(=O)CC3)C[C@@H](C3CCCCC3)C2)c1.O=C(O)C(F)(F)F (racemic) | ng·h/mL | 1640

Now look at this one.
Entry under test: CN(C)C(=O)N1C[C@@H](c2ccccc2)C[C@@H](S(=O)(=O)c2cccc(CN)c2)C1.O=C(O)C(F)(F)F (racemic) . Its AUC(0-t) was 1960

###

- PROCEDURE_TEXT: Microsome stability study
- Assay type: in vitro ADME, mouse
- RUN_CONDITIONS: male, CD-1, pH 7.4; mouse liver microsomes; read-out: Scaled-up CLint
Each entry below carries its reported log10 CLint scaled at 2 μM.
Lab note - CLint scaled at 2 μM converted to log10 from values in mL/min/kg.

MOLECULE | log10 CLint scaled at 2 μM
CN(C)C(=O)N1C[C@@H](c2ccccc2)C[C@@H](S(=O)(=O)c2cccc(CN)c2)C1.O=C(O)C(F)(F)F (racemic) [Example 74, 2,2,2-trifluoroacetate] | 1.73
NCc1ccc(S(=O)(=O)N2C[C@@H](C(=O)N3CCOCC3)C[C@@H](C3CCCCC3)C2)s1.O=C(O)C(F)(F)F (racemic) [Example 120, 2,2,2-trifluoroacetate] | 2.21
NCc1ccnc(S(=O)(=O)N2C[C@@H](C(=O)N3CCS(=O)(=O)CC3)C[C@@H](C3CCCCC3)C2)c1.O=C(O)C(F)(F)F (racemic) [Example 146, 2,2,2-trifluoroacetate] | 2.28
NCc1ccc(S(=O)(=O)N2C[C@H](C(=O)N3CCS(=O)(=O)CC3)C[C@@H](c3ccccc3)C2)s1.O=C(O)C(F)(F)F (racemic) [Example 75B, 2,2,2-trifluoroacetate] | 2.21
NCc1ccc(S(=O)(=O)N2C[C@H](C(=O)N3CCOCC3)C[C@H](c3ccccc3)C2)s1 [Example 13B] | 1.88
CS(=O)(=O)N1CCN(C(=O)[C@H]2C[C@@H](c3ccccc3F)CN(S(=O)(=O)c3ccc(CN)s3)C2)CC1.O=C(O)C(F)(F)F (racemic) [Example 91, 2,2,2-trifluoroacetate] | 2.39

Now look at this one.
Entry under test: CS(=O)(=O)[C@H]1C[C@@H](S(=O)(=O)c2cccc(CN)c2)CN(c2ccccc2)C1 (racemic) . Its log10 CLint scaled at 2 μM was 1.35

###

Each entry below carries its reported IC50.
- TESTED_TARGET: Recombinant human LOXL2 (lysyl oxidase like 2) (Homo sapiens)
- Sequence (Q9Y4K0 26-774): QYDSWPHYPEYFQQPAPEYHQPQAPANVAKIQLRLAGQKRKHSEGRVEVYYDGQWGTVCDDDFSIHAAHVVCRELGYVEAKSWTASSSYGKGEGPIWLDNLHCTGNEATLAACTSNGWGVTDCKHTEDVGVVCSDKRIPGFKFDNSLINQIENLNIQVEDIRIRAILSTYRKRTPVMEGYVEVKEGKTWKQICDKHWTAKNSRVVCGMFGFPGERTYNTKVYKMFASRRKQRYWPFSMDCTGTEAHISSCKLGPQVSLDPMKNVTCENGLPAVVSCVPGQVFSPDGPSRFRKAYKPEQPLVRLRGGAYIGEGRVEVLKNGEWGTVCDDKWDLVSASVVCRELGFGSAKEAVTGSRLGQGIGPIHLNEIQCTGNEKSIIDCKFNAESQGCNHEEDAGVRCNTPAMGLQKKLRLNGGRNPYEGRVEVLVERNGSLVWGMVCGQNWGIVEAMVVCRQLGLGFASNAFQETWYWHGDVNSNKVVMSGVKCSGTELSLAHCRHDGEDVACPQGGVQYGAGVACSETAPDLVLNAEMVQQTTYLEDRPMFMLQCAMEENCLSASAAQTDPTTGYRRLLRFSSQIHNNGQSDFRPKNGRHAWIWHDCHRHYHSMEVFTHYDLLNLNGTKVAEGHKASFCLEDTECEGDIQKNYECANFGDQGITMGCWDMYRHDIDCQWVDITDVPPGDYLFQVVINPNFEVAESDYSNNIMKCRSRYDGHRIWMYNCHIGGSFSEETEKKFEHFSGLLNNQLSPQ
- PROCEDURE_TEXT: LOXL2 inhibition assay (fluorometric, cadaverine/Amplex Red/HRP)
- RUN_CONDITIONS: IC50 class; recombinant human LOXL2, cadaverine substrate; read-out: Activity Range LOXL2
- Description: The ability of compounds to inhibit one or more of the lysyl oxidases LOXL2 and/or LOXL3 was determined using a fluorometric assay. […] Hydrogen peroxide is in turn detected using a red fluorescence substrate for HRP-coupled reactions (Amplex Red Enzyme Assays, Thermo Scientific Fisher). This leads to increase in fluorescence that can be easily detected at Ex/Em=540/590 nm in a fluorescence microplate reader. […]

MOLECULE | TESTED_TARGET | IC50
NCc1cnc(S(=O)(=O)N2C[C@H](C(=O)N3CCS(=O)(=O)CC3)C[C@@H](c3ccccc3)C2)s1 (racemic) [Example 112T, 2,2,2-trifluoroacetate] | Recombinant human LOXL2 (lysyl oxidase like 2) (Homo sapiens) | 500 to 1000 nM

Entry under test: NCc1ccc(S(=O)(=O)N2C[C@@H](C(=O)N3CCOCC3)C[C@@H](c3ccccc3)C2)s1 [Example 13A] . Its IC50 was ≤ 500 nM

Entry under test: NCc1ccnc(S(=O)(=O)N2C[C@@H](C(=O)N3CCS(=O)(=O)CC3)C[C@@H](c3ccccc3)C2)c1 (racemic) [Example 134, 2,2,2-trifluoroacetate] . Its IC50 was ≤ 500 nM

###

Each entry below carries its reported efflux ratio at 2 h, 5 μM.
- PROCEDURE_TEXT: Permeability study in Caco-2 cell line
- Type: in vitro ADME
- RUN_CONDITIONS: human, Caco-2, pH 7.4
Number only, please.

Entry under test: NCc1ccc(S(=O)(=O)N2C[C@H](C(=O)N3CCOCC3)C[C@H](c3ccccc3)C2)s1 [Example 13B] . Its efflux ratio at 2 h, 5 μM was 24.5

Entry under test: CS(=O)(=O)N1CCN(C(=O)[C@H]2C[C@@H](c3ccccc3F)CN(S(=O)(=O)c3ccc(CN)s3)C2)CC1.O=C(O)C(F)(F)F (racemic) . Its efflux ratio at 2 h, 5 μM was 138

Entry under test: NCc1ccc(S(=O)(=O)N2C[C@H](C(=O)N3CCS(=O)(=O)CC3)C[C@@H](c3ccccc3)C2)s1.O=C(O)C(F)(F)F (racemic) [Example 75B] . Its efflux ratio at 2 h, 5 μM was 30.1

Entry under test: CN(C)C(=O)N1C[C@@H](c2ccccc2)C[C@@H](S(=O)(=O)c2cccc(CN)c2)C1.O=C(O)C(F)(F)F (racemic) . Its efflux ratio at 2 h, 5 μM was 47.1

Entry under test: CS(=O)(=O)[C@H]1C[C@@H](S(=O)(=O)c2cccc(CN)c2)CN(c2ccccc2)C1 (racemic) . Its efflux ratio at 2 h, 5 μM was 61.4
